Assay: Pharmacokinetic study in humans, sodium salt tablets, multiple dose (Example 3)
Type: in vivo, human
Settings: human, plasma, oral, 200 mg, 200 mg Dose Group, tablet once daily, Day 21, Median
recorded.endpoint: AUC(0-t) (µg·h/mL)
Report as a plain number; the unit µg·h/mL is understood.

Q: Report AUC(0-t) for O=C(Nc1nc(=O)n(Cc2ccc(Cl)cc2)s1)c1ccc(Cl)cc1 please.
Result: 1720

---

Test: Pharmacokinetic study in humans, sodium salt in enteric capsules, single and multiple dose (Example 2)
Type: in vivo, human
Details: human, plasma, oral, 800 mg, mean, dose group 800, capsule, Day 1; read-out: Tmax
recorded.endpoint: Tmax
Note: state the figure and append the unit.

Q: Report Tmax for O=C(Nc1nc(=O)n(Cc2ccc(Cl)cc2)s1)c1ccc(Cl)cc1 [Compound of formula II] please.
Result: 15.6 h

---

Test: Pharmacokinetic study in humans, sodium salt tablets, multiple dose (Example 3)
Format: in vivo, human
Conditions: human, plasma, oral, 400 mg, 400 mg Dose Group, tablet once daily, Day 21, Mean; read-out: Clast
recorded.endpoint: concentration at 24 h (µg/mL)
Report as a plain number; the unit µg/mL is understood.

Q: Report concentration at 24 h for O=C(Nc1nc(=O)n(Cc2ccc(Cl)cc2)s1)c1ccc(Cl)cc1 [Compound of formula II] please.
Result: 129

---

Experiment: Pharmacokinetic study in humans, sodium salt in enteric capsules, single and multiple dose (Example 2)
Type: in vivo, human
Conditions: human, plasma, oral, 200 mg, repeated dosing, study of Example 2; read-out: Cmax
recorded.endpoint: Cmax

Q: Report Cmax for O=C(Nc1nc(=O)n(Cc2ccc(Cl)cc2)s1)c1ccc(Cl)cc1 please.
Result: ~50 µg/mL

---

Assay: Pharmacokinetic study in humans, sodium salt in enteric capsules, single and multiple dose (Example 2)
Assay type: in vivo, human
Settings: human, plasma, oral, 400 mg, 400 mg Dose Group, capsules once daily, Day 18, individual subjects; read-out: Cmax
recorded.endpoint: Cmax (µg/mL)
Report as a plain number; the unit µg/mL is understood.

Q: Report Cmax for O=C(Nc1nc(=O)n(Cc2ccc(Cl)cc2)s1)c1ccc(Cl)cc1 please.
Result: 56.2

---

Assay: Pharmacokinetic study in humans, sodium salt in enteric capsules, single and multiple dose (Example 2)
Type: in vivo, human
Settings: human, plasma, oral, 800 mg, mean, dose group 800, capsule, Day 18; read-out: Tmax
recorded.endpoint: Tmax (h)
Report as a plain number; the unit h is understood.

Q: Report Tmax for O=C(Nc1nc(=O)n(Cc2ccc(Cl)cc2)s1)c1ccc(Cl)cc1 [Compound of formula II] please.
Result: 11.5

---

Experiment: Pharmacokinetic study in humans, sodium salt in enteric capsules, single and multiple dose (Example 2)
Type: in vivo, human
Conditions: human, plasma, oral, 400 mg, 400 mg Dose Group, capsules once daily, Day 18, Geometric Mean
recorded.endpoint: AUC (µg·h/mL)
Report as a plain number; the unit µg·h/mL is understood.

Q: Report AUC for O=C(Nc1nc(=O)n(Cc2ccc(Cl)cc2)s1)c1ccc(Cl)cc1 please.
Result: 1500

---

Assay: Pharmacokinetic study in humans, sodium salt in enteric capsules, single and multiple dose (Example 2)
Format: in vivo, human
Conditions: human, plasma, oral, 400 mg, 400 mg Dose Group, capsules once daily, Day 18, Median; read-out: Tmax
recorded.endpoint: Tmax (h)
Report as a plain number; the unit h is understood.

Q: Report Tmax for O=C(Nc1nc(=O)n(Cc2ccc(Cl)cc2)s1)c1ccc(Cl)cc1 please.
Result: 5
